The reported measurements were obtained from patent US9598416B2.

molecular target: human FGFR-3 (Homo sapiens (Human))
Sequence (P22607 397-806): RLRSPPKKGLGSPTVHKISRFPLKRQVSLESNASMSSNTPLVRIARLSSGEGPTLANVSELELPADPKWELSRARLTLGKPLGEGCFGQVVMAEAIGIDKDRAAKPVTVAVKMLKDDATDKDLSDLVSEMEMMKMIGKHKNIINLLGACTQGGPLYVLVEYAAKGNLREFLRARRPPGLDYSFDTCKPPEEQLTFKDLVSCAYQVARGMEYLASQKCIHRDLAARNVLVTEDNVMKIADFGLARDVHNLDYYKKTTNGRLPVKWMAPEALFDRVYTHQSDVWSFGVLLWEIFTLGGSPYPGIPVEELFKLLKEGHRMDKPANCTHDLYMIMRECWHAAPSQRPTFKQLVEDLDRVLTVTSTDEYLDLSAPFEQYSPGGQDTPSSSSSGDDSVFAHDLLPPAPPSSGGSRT
Structures can show the parent of a compound that is named as a salt.

{"columns": ["compound", "unit", "IC50"],
 "data": [
  ["COc1cc(C)cc2cc(-c3c(CNCCCO)cn4ncnc(N)c34)sc12 [Example 20, dihydrochloride]", "nM", 15.2],
  ["COc1cc(C)cc2cc(-c3c(COCC(N)=O)cn4ncnc(N)c34)sc12", "nM", 4.4],
  ["CCOC(=O)COCc1cn2ncnc(N)c2c1-c1cc2cc(C)cc(OC)c2s1", "nM", 49.9],
  ["COc1cc(C)cc2cc(-c3c(CN[C@H]4CCNC4=O)cn4ncnc(N)c34)sc12 [Example 27, dihydrochloride]", "nM", 0.5],
  ["COc1cc(C)cc2cc(-c3c(CN4CCN(C)CC4)cn4ncnc(N)c34)sc12", "nM", 0.1],
  ["COc1cc(C)cc2cc(-c3c(CN4CCOCC4)cn4ncnc(N)c34)sc12", "nM", 17.4],
  ["COc1cc(C)cc2cc(-c3c(CN4CCNC(=O)C4)cn4ncnc(N)c34)sc12", "nM", 0.4],
  ["COc1cc(C)cc2cc(-c3c(CN4CC(OC)C4)cn4ncnc(N)c34)sc12", "nM", 15.1],
  ["COc1cc(C)cc2cc(-c3c(COCCN4CCCC4)cn4ncnc(N)c34)sc12", "nM", 10.7],
  ["COc1cc(C)cc2cc(-c3c(CN(C)CC(C)OC)cn4ncnc(N)c34)sc12 (centres unmarked)", "nM", 4],
  ["COc1cc(C)cc2cc(-c3c(CN4CCC(O)C4)cn4ncnc(N)c34)sc12 (racemic) [Example 18, dihydrochloride]", "nM", 1.3],
  ["COc1cc(C)cc2cc(-c3c(CN4CCCC4C(N)=O)cn4ncnc(N)c34)sc12 (racemic) [Example 19, dihydrochloride]", "nM", 11.2],
  ["COc1cc(C)cc2cc(-c3c(COC[C@H](C)O)cn4ncnc(N)c34)sc12", "nM", 2.2],
  ["COc1cc(C)cc2cc(-c3c(COCCCC#N)cn4ncnc(N)c34)sc12", "nM", 12.7],
  ["COc1cc(C)cc2cc(-c3c(CN4CCCN(C)CC4)cn4ncnc(N)c34)sc12", "nM", 0.8],
  ["COc1cc(C)cc2cc(-c3c(COCC#N)cn4ncnc(N)c34)sc12", "nM", 9.1],
  ["COCCN(C)Cc1cn2ncnc(N)c2c1-c1cc2cc(C)cc(OC)c2s1", "nM", 7.4],
  ["CCC(C)NCc1cn2ncnc(N)c2c1-c1cc2cc(C)cc(OC)c2s1 (centres unmarked)", "nM", 5],
  ["COc1cc(C)cc2cc(-c3c(CN4CCCC(C(N)=O)C4)cn4ncnc(N)c34)sc12 (centres unmarked)", "nM", 4.4],
  ["COc1cc(C)cc2cc(-c3c(CNCC(C)(C)O)cn4ncnc(N)c34)sc12 [Example 17, dihydrochloride]", "nM", 1.8]
]}
